Taken from patent US9108957B2.

- System Tested: human recombinant TPK1 (Homo sapiens, UniProt P49841)
- Sequence (P49841 whole entry): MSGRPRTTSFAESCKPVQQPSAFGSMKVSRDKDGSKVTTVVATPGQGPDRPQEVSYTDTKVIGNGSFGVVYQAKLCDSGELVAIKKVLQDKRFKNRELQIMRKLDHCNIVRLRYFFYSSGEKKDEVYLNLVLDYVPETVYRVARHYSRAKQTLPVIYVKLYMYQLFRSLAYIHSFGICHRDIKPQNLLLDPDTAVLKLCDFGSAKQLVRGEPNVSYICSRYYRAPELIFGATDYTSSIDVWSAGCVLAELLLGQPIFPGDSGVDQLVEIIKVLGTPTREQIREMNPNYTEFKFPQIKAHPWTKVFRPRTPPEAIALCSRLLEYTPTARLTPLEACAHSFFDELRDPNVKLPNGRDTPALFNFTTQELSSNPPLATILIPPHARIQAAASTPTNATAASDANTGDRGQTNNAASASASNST
- Assay Overview: Inhibitory activity against P-GS1 phosphorylation by TPK1 (Kinase Glo luminescence)
- Type: biochemical
- Run Parameters: 7.5 μM P-GS1, 10 μM ATP, 25° C. for 16 hours, Kinase Glo Reagent luminescent signal
Metric Name: IC50 (µM)

Answered cases to consult:
1) Cn1c(N2CCOC(c3ccc(Br)cc3)CC2)nc(-c2ccncc2)cc1=O (single isomer, unassigned; (+)) [Compound A119] | 0.0722
2) Cc1nc(-c2ccc([C@@H]3COCCN(c4nc(-c5ccncn5)cc(=O)n4C)C3)cc2)no1 [Compound A085] | 0.0167
3) Cn1c(N2CCOC(c3ccccc3F)CC2)nc(-c2ccncn2)cc1=O (centres unmarked) [Compound A105] | 0.0187
4) Cn1c(N2CCOC[C@@H](c3ccc(Br)cc3)C2)nc(-c2ccncn2)cc1=O [Compound A074] | 0.0012
5) Cc1noc(-c2cccc([C@H]3CN(c4nc(-c5ccncc5F)cc(=O)n4C)CCCO3)c2)n1 [Compound A032] | 0.0216
6) Cn1c(N2CCOC(c3ccc(-c4ncon4)cc3)CC2)nc(-c2ccncc2F)cc1=O (single isomer, unassigned; (-)) [Compound A104] | 0.0172

[I] Cn1c(N2CCCO[C@H](c3ccc(F)cc3)C2)nc(-c2ccncc2)cc1=O [Compound A057]
[II] Cn1c(N2CCCOCC2)nc(-c2ccncc2F)cc1=O [Compound A001]
input: Response body: label of entry with the larger IC50; valid values I , II . Please identify the chosen entry by its label.
output: I

---

- System Tested: human recombinant TPK1 (Homo sapiens, UniProt P49841)
- Assay Overview: Inhibitory activity against P-GS1 phosphorylation by TPK1 (Kinase Glo luminescence)
- Run Parameters: 7.5 μM P-GS1, 10 μM ATP, 25° C. for 16 hours, Kinase Glo Reagent luminescent signal
Metric Name: IC50 (nM)

Answered cases to consult:
1. Cn1c(N2CCOC(c3ccc(Br)cc3)CC2)nc(-c2ccncc2F)cc1=O (single isomer, unassigned; (+)) [Compound A114] | 34.7
2. Cn1c(N2CCCO[C@@H](c3ccc(C(N)=O)cc3)C2)nc(-c2ccncc2F)cc1=O [Compound A007] | 3.5
3. Cn1c(N2CCCOCC2c2ccccc2)nc(-c2ccncn2)cc1=O (stereo in doubt) [Compound A065] | 97.5
4. COc1ccccc1C1CCN(c2nc(-c3ccncc3F)cc(=O)n2C)CCO1 (stereo not shown) [Compound A094] | 10.3
5. Cn1c(N2CCCO[C@H](c3cccc(Br)c3)C2)nc(-c2ccncn2)cc1=O [Compound A043] | 51
6. COc1cccc(C2CCN(c3nc(-c4ccncc4F)cc(=O)n3C)CCO2)c1 (stereo not shown) [Compound A093] | 9.65

[1] CC1COCCN(c2nc(-c3ccncn3)cc(=O)n2C)C1 (stereo not shown) [Compound A087]
[2] Cn1c(N2CCOC(c3ccc(-c4ncno4)cc3)CC2)nc(-c2ccncn2)cc1=O (single isomer, unassigned; (-)) [Compound A116]
[3] CC1CCOCCN1c1nc(-c2ccncn2)cc(=O)n1C (stereo not shown) [Compound A070]
[4] Cn1c(N2CCCO[C@@H](c3ccc(Br)cc3)C2)nc(-c2ccncc2F)cc1=O [Compound A010]
input: With regard to IC50, arrange the entries in ascending order, please. Please write the labels in the order that was asked for.
output: 4, 3, 2, 1
